target: recombinant human MCHR1-receptors (Homo sapiens, UniProt Q99705); construct: expressed in transfected cells; assay: MCHR filter binding assay (competition binding); details: membranes from CHO-K1 cells expressing human MCHR1; 0.2 nM [Phe13,[125I]Tyr19]-MCH; read-out: IC50 (nM), in vitro activity (binding assay)
Sequence (Q99705 whole entry): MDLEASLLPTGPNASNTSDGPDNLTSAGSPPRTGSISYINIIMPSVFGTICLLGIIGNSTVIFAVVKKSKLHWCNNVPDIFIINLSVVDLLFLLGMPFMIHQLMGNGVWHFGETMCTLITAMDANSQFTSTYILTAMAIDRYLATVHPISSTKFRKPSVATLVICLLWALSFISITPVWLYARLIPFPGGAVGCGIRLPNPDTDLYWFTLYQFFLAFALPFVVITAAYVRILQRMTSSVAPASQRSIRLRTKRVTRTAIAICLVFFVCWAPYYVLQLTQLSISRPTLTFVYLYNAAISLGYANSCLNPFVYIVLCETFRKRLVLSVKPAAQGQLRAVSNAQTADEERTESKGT
Observed Property: IC50

Form: molecule = CO[C@@H]1CN(C[C@H]2Cc3ccc(F)cc3C2)CC[C@H]1n1c(C(C)(C)O)nc2cc(C)ccc21 [Example 108] ; IC50 = 20 to 200 nM

Form: molecule = Cc1ccc2c(c1)nc(-c1ccccc1)n2C1CCN(C[C@@H]2Cc3ccc(NC(=O)C(C)C)cc3C2)CC1 [Example 33] ; IC50 = < 20 nM

Form: molecule = CO[C@H]1CN(C[C@H]2Cc3ccc(NC(=O)C(C)C)cc3C2)CC[C@@H]1n1c(C)nc2cc(C)ccc21 [Example 49] ; IC50 = 20 to 200 nM

Form: molecule = Cc1ccc2c(c1)CC(CN1CC[C@@H](n3c(C(C)(C)O)nc4cc(C)ccc43)[C@H](O)C1)C2 (stereo partly drawn) [Example 114] ; IC50 = 20 to 200 nM

Form: molecule = CO[C@H]1CN(CC2Cc3ccccc3C2)CC[C@@H]1n1c(C(C)C)nc2cc(C)ccc21 [Example 29] ; IC50 = 200 to 5000 nM

Form: molecule = CCc1nc2cc(C)ccc2n1C1CCN(CC2Cc3ccc(NC(=O)C4CC4)cc3C2)CC1 (stereo not drawn) [Example 74] ; IC50 = 20 to 200 nM

Form: molecule = CO[C@H]1CN(CC2Cc3ccccc3C2)CC[C@@H]1n1c(C)nc2cc(C)ccc21 [Example 81] ; IC50 = 200 to 5000 nM

Form: molecule = CO[C@H]1CN(CC2Cc3cc(F)c(F)cc3C2)CC[C@@H]1n1c(C(C)C)nc2cc(C)ccc21 [Example 100] ; IC50 = 20 to 200 nM

Form: molecule = COC(=O)Nc1ccc2c(c1)C[C@H](CN1CC[C@@H](n3c(C4CC4)nc4cc(C)ccc43)[C@H](OC)C1)C2 [Example 75] ; IC50 = 20 to 200 nM

Form: molecule = CCC(=O)Nc1ccc2c(c1)C[C@H](CN1CC[C@H](n3c(C4CC4)nc4cc(C)ccc43)[C@@H](OC)C1)C2 [Example 60] ; IC50 = < 20 nM

Form: molecule = CO[C@H]1CN(C[C@H]2Cc3ccc(Br)cc3C2)CC[C@@H]1n1c(C(C)C)nc2cc(C)ccc21 [Example 17] ; IC50 = 20 to 200 nM

Form: molecule = CO[C@@H]1CN(CC2Cc3ccc(F)cc3C2)CC[C@H]1n1cnc2cc(C)ccc21 (stereo partly drawn) [Example 118] ; IC50 = 200 to 5000 nM

Form: molecule = CCc1nc2cc(C)ccc2n1C1CCN(C[C@@H]2Cc3ccc(NC(=O)C(C)C)cc3C2)CC1OC (stereo partly drawn) [Example 61] ; IC50 = < 20 nM

Form: molecule = Cc1ccc2c(c1)nc(C(C)(C)O)n2C1CCN(CC2Cc3cccc(Cl)c3C2)CC1 (stereo not drawn) [Example 103, trifluoroacetic acid] ; IC50 = 20 to 200 nM

Form: molecule = CS(=O)(=O)c1ccc2c(c1)nc(C(F)(F)F)n2C1CCN(C[C@H]2Cc3ccc(Br)cc3C2)CC1 [Example 121] ; IC50 = 20 to 200 nM

* * *

molecular target: recombinant human MCHR1-receptors (Homo sapiens); construct: expressed in transfected cells; test: MCHR filter binding assay (competition binding); conditions: membranes from CHO-K1 cells expressing human MCHR1; 0.2 nM [Phe13,[125I]Tyr19]-MCH; read-out: IC50 (nM), in vitro activity (binding assay)
Structures can show the parent of a compound that is named as a salt.
Observed Property: IC50

Form: compound = Cc1ccc2c(c1)nc(C)n2C1CCN(C[C@@H]2Cc3ccc(NC(=O)C(C)C)cc3C2)CC1O (stereo partly shown) [Example 27, dihydrochloride] ; IC50 = 200 to 5000 nM

Form: compound = Cc1ccc2c(c1)CC(CN1CCC(n3c(C(C)(C)F)nc4cc(C)ccc43)CC1)C2 (stereo not shown) [Example 105] ; IC50 = 200 to 5000 nM

Form: compound = Cc1ccc2c(c1)nc(C(C)C)n2[C@@H]1CCN(C[C@@H]2Cc3ccc(NC(=O)C(C)C)cc3C2)C[C@H]1O [Example 86] ; IC50 = 20 to 200 nM

Form: compound = Cc1ccc2c(c1)nc(Cl)n2C1CCN(C[C@@H]2Cc3ccc(NC(=O)C4CC4)cc3C2)CC1 [Example 30, dihydrochloride] ; IC50 = 200 to 5000 nM

Form: compound = CCC(=O)Nc1ccc2c(c1)C[C@H](CN1CC[C@@H](n3c(C)nc4cc(F)ccc43)[C@H](OC)C1)C2 [Example 25, dihydrochloride] ; IC50 = 20 to 200 nM

Form: compound = CO[C@@H]1CN(CC2Cc3ccncc3C2)CC[C@H]1n1c(C)nc2cc(C)ccc21 (stereo partly shown) [Example 119] ; IC50 = 20 to 200 nM

Form: compound = CO[C@H]1CN(C[C@@H]2Cc3ccc(NC(=O)C(F)F)cc3C2)CC[C@@H]1n1c(C2CC2)nc2cc(C)ccc21 [Example 63] ; IC50 = < 20 nM

* * *

Can you tell me IC50 for the items I'm about to list?
biological target: recombinant human MCHR1-receptors (Homo sapiens); construct: expressed in transfected cells; assay: MCHR filter binding assay (competition binding); settings: membranes from CHO-K1 cells expressing human MCHR1; 0.2 nM [Phe13,[125I]Tyr19]-MCH; read-out: IC50 (nM), selected in vitro MCH-R binding data
Express your answer in nM, writing the number without its unit.

Form: molecule = Cc1ccc2c(c1)nc(C(C)(C)O)n2[C@@H]1CCN(C[C@H]2Cc3ccc(Br)cc3C2)CC1O (stereo in doubt) [Example 126] ; IC50 = 2

Form: molecule = Cc1cc2ncn(C3CCN(CC4Cc5ccc(F)cc5C4)CC3)c2cc1F (stereo not shown) [Example 106] ; IC50 = 194

Form: molecule = CO[C@H]1CN(C[C@@H]2Cc3ccc(NC(=O)C4CC4)cc3C2)CCC1n1c(C2CC2)nc2cc(C)ccc21 (stereo in doubt) [Example 66] ; IC50 = 12

Form: molecule = CO[C@@H]1CN(C[C@H]2Cc3ccc(Br)cc3C2)CC[C@H]1n1c(C)nc2cc(C)ccc21 [Example 1] ; IC50 = 20

* * *

target: recombinant human MCHR1-receptors (Homo sapiens); construct: expressed in transfected cells; assay: MCHR filter binding assay (competition binding); conditions: membranes from CHO-K1 cells expressing human MCHR1; 0.2 nM [Phe13,[125I]Tyr19]-MCH; read-out: IC50 (nM), in vitro activity (binding assay)
Counter-ions that a name gives are not always drawn.
Can you tell me IC50 for the items I'm about to list?

Form: compound = Cc1ccc2c(c1)nc(C)n2[C@@H]1CCN(C[C@@H]2Cc3ccc(NC(=O)C(C)C)cc3C2)C[C@H]1OCC(C)(C)O [Example 21, dihydrochloride] ; IC50 = 20 to 200 nM

Form: compound = Cc1ccc2c(c1)nc(C)n2C1CCN(C[C@H]2Cc3ccc(NC(=O)Cc4cccs4)cc3C2)CC1 ; IC50 = < 20 nM

Form: compound = CCC(=O)Nc1ccc2c(c1)C[C@H](CN1CC[C@@H](n3c(C(C)C)nc4cc(C)ccc43)[C@H](O)C1)C2 ; IC50 = < 20 nM

Form: compound = CCC(=O)Nc1ccc2c(c1)C[C@H](CN1CCC(n3c(CC)nc4cc(C)ccc43)C(OC)C1)C2 (stereo partly shown) ; IC50 = < 20 nM

Form: compound = CO[C@@H]1CN(C[C@H]2Cc3ccc(Br)cc3C2)CC[C@H]1n1c(C)nc2cc(C)ccc21 ; IC50 = < 20 nM

Form: compound = CO[C@@H]1CN(CC2Cc3cccc(Cl)c3C2)CC[C@H]1n1c(C)nc2cc(C)ccc21 (stereo partly shown) ; IC50 = 20 to 200 nM

Form: compound = Cc1ccc2c(c1)nc(C)n2[C@@H]1CCN(C[C@@H]2Cc3ccc(NC(=O)C(C)C)cc3C2)C[C@H]1OS(C)(=O)=O ; IC50 = 20 to 200 nM

Form: compound = COc1ccc2c(c1)CC(CN1CC[C@H](n3c(C(C)C)nc4cc(C)ccc43)[C@@H](OC)C1)C2 (stereo partly shown) [Example 93, dihydrochloride] ; IC50 = 20 to 200 nM

Form: compound = CO[C@@H]1CN(C[C@@H]2Cc3ccc(Cl)cc3C2)CC[C@H]1n1c(C(C)(C)O)nc2cc(C)ccc21 ; IC50 = < 20 nM

Form: compound = CO[C@@H]1CN(CC2Cc3ccccc3C2)CC[C@H]1n1c(C(C)C)nc2cc(C)ccc21 ; IC50 = 20 to 200 nM

Form: compound = Cc1ccc2c(c1)nc(C(C)(C)O)n2C1CCN(C[C@H]2Cc3ccc(Br)cc3C2)CC1 ; IC50 = < 20 nM

Form: compound = COC1CN(C[C@@H]2Cc3ccc(NC(=O)C4CC4)cc3C2)CCC1n1c(C(C)C)nc2cc(C)ccc21 (stereo partly shown) ; IC50 = < 20 nM

Form: compound = Cc1ccc2c(c1)nc(C)n2C1CCN(CC2=Cc3cc(NC(=O)C(C)C)ccc3C2)CC1 ; IC50 = 200 to 5000 nM
